System Under Test: UniProt Q99572
Sequence (Q99572 whole entry): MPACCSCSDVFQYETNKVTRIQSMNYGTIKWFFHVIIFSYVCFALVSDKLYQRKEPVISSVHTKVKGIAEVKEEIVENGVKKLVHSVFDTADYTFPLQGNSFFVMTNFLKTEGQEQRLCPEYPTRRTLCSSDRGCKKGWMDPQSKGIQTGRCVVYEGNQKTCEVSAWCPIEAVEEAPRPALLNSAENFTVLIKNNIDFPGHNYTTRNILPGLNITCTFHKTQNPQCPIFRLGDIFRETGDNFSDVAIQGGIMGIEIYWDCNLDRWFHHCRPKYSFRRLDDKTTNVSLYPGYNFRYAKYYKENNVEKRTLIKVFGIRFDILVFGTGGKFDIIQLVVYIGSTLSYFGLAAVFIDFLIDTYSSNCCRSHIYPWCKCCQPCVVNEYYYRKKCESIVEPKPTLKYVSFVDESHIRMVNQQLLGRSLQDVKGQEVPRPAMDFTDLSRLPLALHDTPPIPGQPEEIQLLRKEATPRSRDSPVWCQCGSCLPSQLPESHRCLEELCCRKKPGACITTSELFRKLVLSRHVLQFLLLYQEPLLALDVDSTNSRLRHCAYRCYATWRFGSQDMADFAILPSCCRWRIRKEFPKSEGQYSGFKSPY
Assay Summary: TEVC of ATP4--induced currents, hP2X7R in X. laevis oocytes (modified steady-state protocol)
Particulars: 300 µM free ATP4-; estimated from few tested concentrations
Endpoint: IC50

{"Molecule": "O=C(O)Cc1ccccc1Nc1c(Cl)cccc1Cl [Diclofenac, diclofenac]", "Data Value": "> 300 µM"}

Turning now to a further record.
Inquiry: Recorded IC50 of O=C(O)c1ccccc1Nc1cccc(C(F)(F)F)c1 [Flufenamic acid, flufenamic acid] , please.
Reply text: ~900 µM

====

System Under Test: hP2X2R (Homo sapiens, UniProt Q9UBL9)
Construct: expressed in transfected cells; host or cells: Xenopus laevis oocytes (cRNA injection)
Sequence (Q9UBL9 whole entry): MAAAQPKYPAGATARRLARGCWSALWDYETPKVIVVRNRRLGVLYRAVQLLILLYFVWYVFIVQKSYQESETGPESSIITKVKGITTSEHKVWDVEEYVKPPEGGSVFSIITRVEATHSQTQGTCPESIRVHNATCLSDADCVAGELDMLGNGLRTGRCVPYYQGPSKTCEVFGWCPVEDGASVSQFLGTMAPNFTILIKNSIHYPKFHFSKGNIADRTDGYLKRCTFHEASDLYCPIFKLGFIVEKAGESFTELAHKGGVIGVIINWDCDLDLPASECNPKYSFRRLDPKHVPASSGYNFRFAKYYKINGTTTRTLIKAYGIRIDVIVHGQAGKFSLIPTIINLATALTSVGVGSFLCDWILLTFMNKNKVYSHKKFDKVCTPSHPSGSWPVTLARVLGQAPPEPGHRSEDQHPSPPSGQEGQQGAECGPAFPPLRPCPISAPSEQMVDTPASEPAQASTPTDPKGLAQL
Assay Summary: TEVC of ATP-induced currents, hP2X2R in X. laevis oocytes (steady-state protocol)
Format: cell-based
Particulars: 10 µM ATP, concentration–response curve; read-out: half-maximal potentiation value
From the text: Oocyte expression plasmids encoding the wild-type (wt) and N-terminally His-tagged (His-) fusion constructs of the hP2X2R, hP2X3R, hP2X4R, and hP2X7R, and the mutant His-^20RMVL^23KVIV^23S^26N-hP2X1R, S^15V-rP2X3R, and His-S^15V-hP2X3R were the same as used in previous research ([Hausmann et al., 2006]; [Wolf et al., 2011]; [Hausmann et al., 2014]; [Obrecht et al., 2019]). […]
Endpoint: pEC50
// returns pEC50 (minus log10 of molar concentration), number only

Inquiry: I would be grateful if you could share the reported pEC50 for `O=C(O)c1ccccc1Nc1cccc(C(F)(F)F)c1` .
Reply text: 3.80
